Each recorded value in this set is attributed to patent US20240101668A1.

- EXPERIMENTAL SYSTEM: T1, huCD33-G69 stably expressed on Jurkat cells (human, UniProt P20138 18-364)
- T1 construct: whole, on cells; >200,000 receptors per cell; also called CD33 Mutant; CD33 R69G
- T1 sequence (P20138 18-364 R69G): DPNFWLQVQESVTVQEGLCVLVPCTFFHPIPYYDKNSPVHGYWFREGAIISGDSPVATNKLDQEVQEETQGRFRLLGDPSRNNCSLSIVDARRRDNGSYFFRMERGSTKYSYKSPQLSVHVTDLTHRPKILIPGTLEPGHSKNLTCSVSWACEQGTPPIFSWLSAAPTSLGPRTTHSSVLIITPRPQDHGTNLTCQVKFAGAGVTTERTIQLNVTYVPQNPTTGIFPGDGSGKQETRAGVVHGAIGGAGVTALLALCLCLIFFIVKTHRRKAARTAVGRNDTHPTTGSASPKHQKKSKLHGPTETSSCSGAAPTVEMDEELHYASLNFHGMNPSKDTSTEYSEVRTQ
- ASSAY COMMENT: FACS on cells;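 note: fixed Jurkat lines probed with myc-tagged scFv periplasmic extracts, anti-myc PE flow cytometry, PE MFI fold binned − <2, + 2–10, ++ 10–30, +++ >30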
OBSERVATION TYPE: FACS geometric mean fold change over Jurkat parental

These solved cases illustrate the format of a correct answer.
Polypeptide No. 107 (scFv, V domains shown, scFv) VH: QVQLVQSGAEVKKPGSSVKVSCKASGYTFTDYYIHWVRQAPGQGLEWMGGIIPIFGTANYAQKFQGRVTITADESTSTAYMELSSLRSEDTAVYYCAREPLWFGESSPHDYYGMDVWGQGTLVTVSS VL: DIQMTQSPSSLSASVGDRVTITCQASQDISNYLNWYQQKPGKAPKLLIYAASTLQSGVPSRFSGSGSGTDFTLTISSLQPEDFATYYCQQSYSSPPTFGQGTKVEIKR; 10 to 30 fold
Polypeptide No. 140 (scFv, V domains shown, scFv) VH: EVQLVESGGGLVKPGGSLRLSCAASGITVSSSWMHWVRQAPGKGLEWVSAIGTGGGTHYADSVKGRFTISRDDSKNTLYLQMNSLKTEDTAVYYCARDQGGQIDHWGQGTLVTVSS VL: DIQMTQSPSSLSASVGDRVTITCRASQSISSWLAWYQQKPGKAPKLLIYDASTLQSGVPSRFSGSGSGTDFTLTISSLQPEDFATYYCQQSYSIPLTFGGGTKVEIKR; 2 to 10 fold

Consider the additional binder presented here.
Need FACS geometric mean fold change over Jurkat parental, item Polypeptide No. 116 (scFv, V domains shown, scFv) VH: EVQLLESGGGLVQPGGSLRLSCAASGFTFSNYAMAWVRQAPGKGLEWVSAISGSGGGTYYADSVKGRFTISRDNSKNTLYLQMNSLRAEDTAVYYCAREGGYDPDYYYYGMDVWGQGTTVTVSS VL: DIQMTQSPSSLSASVGDRVTITCRASQSISSYLNWYQQKPGKAPKLLIYATSRLQSGVPSRFSGSGSGTDFTLTISSLQPEDFATYYCQQGFNFPPTFGGGTKVEIKR > 30 fold
